Entries and their melting point values follow.

Illustrative cases are given below, each with its answer.
CCOC(=O)Cc1coc2c(OC)ccc(C(=O)Cc3c(Cl)cncc3Cl)c12	105 to 115 °C
Cc1nccc2c3ccc(OCc4ccccc4)cc3n(Cc3ccccc3)c12	156 °C
CCOC(=O)c1[nH]cc2c1NC1=C(C(=O)CCC1)C2c1ccc(Sc2nc3cc(OC)ccc3[nH]2)o1 (stereo not given)	140 °C
Cc1cc(CCCCCOc2c(C)cc(-c3noc(C(F)(F)F)n3)cc2C)on1	41 to 42 °C
CCCCc1ccc2c(n1)C(C(N)=S)CCC2 (stereo not given)	54 to 56 °C

Would you kindly share the measured melting point for Cn1nc2c(-c3ccc(Cl)cc3Cl)cccc2c1-n1ccnc1 ? 63 to 89 °C

Would you kindly share the measured melting point for Cn1cc(-c2ccc(F)cc2)c(=O)c(-c2cccc(C(F)(F)F)c2)c1 ? 133 to 134 °C

Would you kindly share the measured melting point for Cn1cc(C(=O)NCc2ccc(Cl)cc2)c(=O)c2cc(Br)oc21 ? 232 to 233 °C

Would you kindly share the measured melting point for CC(=O)Nc1ccc2oc3c(c2c1)CCCC3 ? 196 to 198 °C

Would you kindly share the measured melting point for N#Cc1ccc(Cn2cncn2)cc1-c1ccc(OS(N)(=O)=O)c(Cl)c1 ? 133 to 136 °C

* * *

Entries and their melting point values follow.

COc1ccc(C(=O)Nc2cc([N+](=O)[O-])ccc2C)cc1OC	> 300 °C
COc1cc(C2OCCO2)cc(C#N)c1OC	76.5 to 77.5 °C
O=CNC1CCCc2sc(Br)cc21 (stereo unspecified)	104 to 108 °C
COc1cccc(-c2nc(-c3ccccc3C=O)n[nH]2)c1	163 to 165 °C
CCC[C@H]1CC[C@H](c2ccc(OCC)c(C=O)c2)CC1	32 °C

Let's switch to this compound now.
Would you kindly share the measured melting point for CCc1ccc(-c2nc3ccccc3[nH]2)cc1 ? 258 °C

* * *

Entries and their melting point values follow.

Illustrative cases are given below, each with its answer.
N=C(N)SCc1cccc(CSC(=N)N)c1	216 to 218 °C
CSc1cccc(-n2ncc(-c3ccc(S(C)(=O)=O)cc3)c(-c3ccc(F)cc3)c2=O)c1	196 °C
COCc1cc(Oc2c(Cl)cc(C(F)(F)F)cc2Cl)n[nH]1	141 to 143 °C
O=c1ccn(-c2cc3[nH]c(=O)c(=O)[nH]c3cc2[N+](=O)[O-])cc1Cl	> 300 °C
COc1ccc(-c2cc(COS(C)(=O)=O)c(=O)n(CC=Cc3ccc(Cl)cc3)n2)cc1F	136 °C

Would you kindly share the measured melting point for CC(=O)c1ccc(C(=O)NCCOc2ccc3ccccc3c2)cc1 ? 131 to 132 °C

Would you kindly share the measured melting point for O=S(=O)(Cl)c1ccc(Nc2nccc(-c3ccc(C(F)(F)F)cc3)n2)cc1 ? 186 to 188 °C

Would you kindly share the measured melting point for CC(C)(C)C(=O)CN1CCNC1=N[N+](=O)[O-] ? 158 to 159 °C

Would you kindly share the measured melting point for COc1ccc(CN(CCN(C)CCCCCCNC(=NCCCOc2cccc(CN3CCCCC3)c2)NC#N)c2ccccn2)cc1 ? 79 °C

Would you kindly share the measured melting point for Cc1nc(C)c(CC#N)cc1CC#N ? 65 to 67 °C

Would you kindly share the measured melting point for NC(=O)c1cccc(CCCBr)c1 ? 109 °C

Would you kindly share the measured melting point for Nc1c2c(nc3ccccc13)C1C=CC2C1 (stereo not given) ? 123 °C

Would you kindly share the measured melting point for COc1ccc(C2C3=C(COC3=O)Nc3ccc4cc[nH]c4c32)cc1O (stereo not given) ? 297 to 299 °C

Would you kindly share the measured melting point for CCNC(=O)Nc1ccc(-c2sc3c(c2CN(C)CCOC)c(=O)n(-c2ccc(N)cc2)c(=O)n3Cc2c(F)cccc2F)cc1 ? 205 to 207 °C

Would you kindly share the measured melting point for O=C1Nc2ccc(F)cc2C1c1ncnc2nn(C3CCCCC3)cc12 (stereo not given) ? 294 to 298 °C

Would you kindly share the measured melting point for COCc1cc(OC)c(-c2ccc(C[C@H](NC(=O)c3c(F)cccc3Cl)C(=O)O)cc2)c(OC)c1 ? 170 to 175 °C

Would you kindly share the measured melting point for c1c(N2CCCC2)nc(N2CCCC2)nc1N1CCN(CCN2CCNCC2)CC1 ? 148 to 149 °C

Would you kindly share the measured melting point for COC(=O)C(COC(C)=O)C(=O)OC(C)(C)C (stereo not given) ? 61 to 62 °C

Would you kindly share the measured melting point for Fc1cccc(NC2CN([C@H]3CC[C@@H](c4c[nH]c5ccc(F)cc54)CC3)C2)c1 ? 67 to 70 °C

Would you kindly share the measured melting point for CCc1cn(C2OC(CNC(=O)C(C)Oc3c(Cl)cc(Cl)c(OC)c3Cl)C(O)C2F)c(=O)[nH]c1=O (stereo not given) ? 210 to 211 °C

* * *

Entries and their melting point values follow.

Illustrative cases are given below, each with its answer.
CC(C)n1nc(-c2sc(C(=O)N3CCN(C)CC3)nc2-c2ccccc2)ccc1=O	155 to 156 °C
COc1cccc2c(=O)c(C)c3sc4ccccc4nc-3c12	170 to 171 °C
Oc1ccc(-c2csc(S)n2)cc1O	236 °C
CCCCCCCCCCCCCCOCC(CO)(CO)COCCCCCCCCCCCCCC	63 to 64 °C
Cn1ncnc1COc1nc2c(cc1C1CCC1)nnn2-c1ccccc1F	120 to 122 °C

Would you kindly share the measured melting point for CC(C)(C)[Si](C)(C)Oc1cc(Cl)cc(C(O)(C#CC2CC2)C(F)(F)F)c1N (configuration not stated) ? 125 to 126 °C

* * *

Entries and their melting point values follow.

O=C(O)Cc1c(C(=O)c2cccc(OCc3ccccc3)c2)[nH]c2cc(Cl)ccc12	174 to 177 °C
C=Cc1ccc(C=O)cc1	65.9 °C
CC(=O)N=c1sc(C)cn1CC(O)c1cccs1 (configuration not stated)	106 to 107 °C
CC(C)Cn1c(C(C)O)nc2cnc3ccccc3c21 (configuration not stated)	152 to 166 °C
Cc1cc(C)cc(S(=O)(=O)c2c(C(C)C)nc(C)n2C)c1	126 to 128 °C

Would you kindly share the measured melting point for COc1ccc2nccc(NC(=O)N3CCN(CCc4ccc5c(c4)NC(=O)CS5)CC3)c2n1 ? 248 to 250 °C

Would you kindly share the measured melting point for N#Cc1ccc(-c2csc(NCCO)n2)cc1 ? 80 to 82 °C

Would you kindly share the measured melting point for CS(=O)(=O)c1ccc(-c2sc(NCc3ccccc3)nc2-c2ccc(F)cc2)cc1 ? 112 °C

Would you kindly share the measured melting point for NCCN1CCC(NC(=O)c2cc(Cl)c(N)c3c2OCCC3)CC1 ? 130 °C

Would you kindly share the measured melting point for CCOC(=O)C(CC)(CC)CCS(N)(=O)=O ? 93 to 94 °C

Would you kindly share the measured melting point for CC(=O)ONC(=N)c1ccc(-c2nc(C)c(C(=O)NC(C)C(O)(Cn3cncn3)c3ccc(F)cc3F)s2)cc1 (configuration not stated) ? 146 to 147 °C

Would you kindly share the measured melting point for CCCCCCCCCCCC(C(=O)NN)C(C(=O)Nc1c(OC)cc(OC)cc1OC)c1ccccc1 (configuration not stated) ? 175 to 180 °C

Would you kindly share the measured melting point for CCN(C(=O)OC(C)(C)C)c1cn(-c2cccnc2)nc1Cl ? 55 to 58 °C

Would you kindly share the measured melting point for CC(=O)NCN(C(=O)CCl)C(=C(C)C)C(C)C ? 113 to 114 °C

Would you kindly share the measured melting point for O=C(Nc1ccc(C2(F)CCN(C(=O)OCc3ccccc3)CC2)c(F)c1)OCc1ccccc1 ? 116 to 118 °C

Would you kindly share the measured melting point for CCOC(=O)C(=CN(C)C)C(=O)C(Cl)Cl ? 71 to 72 °C

Would you kindly share the measured melting point for Cc1ncc(C(=O)N2CCCCC2)s1 ? 68.7 °C

Would you kindly share the measured melting point for Cc1ccc(S(=O)(=O)Nc2cccc(-c3nnc(-c4ccc(C(=O)O)cc4)o3)c2)cc1 ? > 275 °C

Would you kindly share the measured melting point for CC(C)C1CC(=O)C(C(=O)Nc2ccc(Cl)c(Cl)c2)C(=O)C1 (configuration not stated) ? 138 °C

Would you kindly share the measured melting point for Cc1ccc(S(=O)(=O)OCC(O)Cc2cccc(C(C)(C)C)c2O)cc1 (configuration not stated) ? 98 to 101 °C

Would you kindly share the measured melting point for CCCOc1cc(Cn2[nH]c(N)cc2=O)ccc1Cl ? 143 °C

Would you kindly share the measured melting point for Oc1ccc2nc(NC3=NCCN3)[nH]c2c1 ? 254 to 258 °C

* * *

Entries and their melting point values follow.

Illustrative cases are given below, each with its answer.
CC(C)(F)Cn1c(CO)nc2c(N)nc3cccnc3c21	240 to 241 °C
O=S(=O)(c1cn(-c2c(Cl)cc(C(F)(F)F)cc2Cl)c(Cl)n1)C(F)(F)F	182 °C
CN(c1ccccc1)S(=O)(=O)c1ccc(C#CC(C)(O)C(F)(F)F)cc1 (stereo not given)	116 to 118 °C

Let's switch to this compound now.
Would you kindly share the measured melting point for COc1ccc2cc([C@H](C)C(=O)OCC(CO)(CO)[N+](=O)[O-])ccc2c1 ? 124 to 126 °C
